The reader will find reported Fraction4, Before φ values listed item by item below.
Experimental details: aggregation and purification amounts of deglycosylated antibodies, before and after φ
Assay type: physicochemical
Condition notes: based on 100 ml culture
A bare number is not enough; add the unit after it.

Would you please look over these solved cases?
{"Molecule": "Deglyco-C4: deglycosylated clone 1 IgG; light chain CDR1 TGSSSNIGAVVVT (SEQ ID NO: 5) (antibody, V domains shown) VH: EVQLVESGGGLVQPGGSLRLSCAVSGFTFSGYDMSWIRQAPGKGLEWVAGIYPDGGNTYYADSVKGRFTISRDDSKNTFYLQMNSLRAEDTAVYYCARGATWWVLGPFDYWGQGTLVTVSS VL: DIQLTQSPSSLSASVGDRVTITCTGSSSNIGAVVVTWYQQKPGKAPKLLIYADSHRPSGVPSRFSGSGSGTDFTLTISSLQPEDFATYYCGAWDDSLSGYVFGQGTKVEIKR", "Test value": "0.057 mg"}
{"Molecule": "Deglyco-C2: deglycosylated clone 1 IgG; light chain CDR1 TGSSSNIGATAVT (SEQ ID NO: 3) (antibody, V domains shown) VH: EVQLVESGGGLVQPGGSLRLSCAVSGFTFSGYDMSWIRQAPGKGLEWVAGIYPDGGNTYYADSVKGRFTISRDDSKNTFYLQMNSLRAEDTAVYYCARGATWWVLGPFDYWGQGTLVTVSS VL: DIQLTQSPSSLSASVGDRVTITCTGSSSNIGATAVTWYQQKPGKAPKLLIYADSHRPSGVPSRFSGSGSGTDFTLTISSLQPEDFATYYCGAWDDSLSGYVFGQGTKVEIKR", "Test value": "0.201 mg"}

Q) If you can, please state the reported Fraction4, Before φ value of Deglyco-C3: deglycosylated clone 1 IgG; light chain CDR1 TGSSSNIGWSNVT (SEQ ID NO: 4) (antibody, V domains shown) VH: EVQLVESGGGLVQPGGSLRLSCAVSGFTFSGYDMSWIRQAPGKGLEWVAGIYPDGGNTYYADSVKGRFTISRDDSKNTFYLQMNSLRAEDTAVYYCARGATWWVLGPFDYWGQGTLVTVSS VL: DIQLTQSPSSLSASVGDRVTITCTGSSSNIGWSNVTWYQQKPGKAPKLLIYADSHRPSGVPSRFSGSGSGTDFTLTISSLQPEDFATYYCGAWDDSLSGYVFGQGTKVEIKR .
A) 0.129 mg

Q) If you can, please state the reported Fraction4, Before φ value of deglyco C1 IgG: deglycosylated clone 1 IgG; light chain CDR1 TGSSSNIGRCGVT (SEQ ID NO: 2), N32R/N33C/S34G (antibody, V domains shown) VH: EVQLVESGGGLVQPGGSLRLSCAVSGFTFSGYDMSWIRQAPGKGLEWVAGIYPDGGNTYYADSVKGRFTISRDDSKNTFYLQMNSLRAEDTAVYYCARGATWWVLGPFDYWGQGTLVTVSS VL: DIQLTQSPSSLSASVGDRVTITCTGSSSNIGRCGVTWYQQKPGKAPKLLIYADSHRPSGVPSRFSGSGSGTDFTLTISSLQPEDFATYYCGAWDDSLSGYVFGQGTKVEIKR .
A) 0.129 mg
